Collected pKd values appear next to each entry.
# Target or system: T1, recombinant cynomolgus CFD, His-tagged (cynomolgus)
# T1 construct: also called rcyCFD-His; recombinant Cyno-CFD
# Test details: SPR MX96
Reminder that pKd is minus the log10 of a molar concentration.

1. KCD214 (antibody, V domains shown, chimeric) VH: EVQLQQSVAEFVRPGASVKLSCTASGFNIKNTYMHWVKQRPEQGLEWIGRIDPANGNTEYAPKFQGKATITADTSSNTAYLQLSSLTSEDTAIYYCALYDYDGYWGQGTTLTVSS VL: EIVLTQSPALMAASPGEKVTITCRVSSSISSSSLHWYQQKSGTSPKPWIYGTSNLASGVPVRFSGSRSGTSYSLTISSMEAEDAATYYCQQWSDYPWTFGGGTKLEIK : 7.59
2. KCD212 (antibody, V domains shown) VH: EVHLVESGGDLVKPGGSLKLSCAASGFTFSRYGMSWVRQTPDKRLEWVATISSAGSYTYYPDSVKGRFTISRDNAKNTLFLQMSSLKSEDTAMYYCARPLNYYGTSSFDYWGQGTTLTVSS VL: QIVLTQSPAIMSASPGEKVTMTCRASSSVSSTYLHWYQQKPGSSPKLWIYSTSNLASGVPPRFSGSGSGTSYSLTISSVEAEDAATYYCQQYDSSPNTFGAGTKLELK : 8.42

Q: Consider the binder shown here: KCD019 (antibody, V domains shown) VH: QVQLQQSGAELARPGASVKMSCKASGYTFATYTIHWVKQRPGQGLEWIGYLNLRNDYTHYNQKFRDKAALTADKSSSTAYMQLSSLTSEDSAVYNCAFRLGNDRQGWYFDVWGAGTTVTVSS VL: DIVMTQAHRFMSTSVGDRVIISCKASQDVGTAVAWYQQTPGQSPKILIYWTSTRHTGVPDRFTGSRSGTDFTLTISNVQSEDLADYFCQQYTTYPLTFGGGTKLEIK What is its recorded pKd?
Ans: 7.33

Q: Consider the binder shown here: KCD038 (antibody, V domains shown) VH: EVQLQQSGPELVKPGTSMKISCKASGYSFADYTMNWVKQSHGKSLEWIGLINPYNGGTSYNQKFMGKATLTVDKSSSTAYMELLSLTSEDSAVYYCARWGTYSHNYDYAMDYWGQGTSVTVSS VL: DVVMTQTPLSLPVSLGDQASISCRSSQSLVHSNGNTYLYWYFQKPGQSPKFLIYKVSNRFSGISDRFSGSGSGTDFTLKISRVEAEDLGVYFCSQSTHVPPFTFGSGTKLEIK What is its recorded pKd?
Ans: 7.35

Q: Consider the binder shown here: KCD104 (antibody, V domains shown, chimeric) VH: QVQLQQPGAELVRPGTSVKLSCKASGYTFTSYWMHWVKQRPGQGLEWIGVIDPSDSYTYYNQKFKGKATLTVDTSSSTAYMQLSSLTSEDSAVYYCARNGYDGAMDYWGQGTSVTVSS VL: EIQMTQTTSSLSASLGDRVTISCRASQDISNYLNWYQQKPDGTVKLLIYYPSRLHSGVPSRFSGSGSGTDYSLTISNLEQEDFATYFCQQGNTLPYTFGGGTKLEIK What is its recorded pKd?
Ans: 7.14
